# study.target: T1, human APJ receptor (hAPJ) (human, UniProt P35414 1-380)
# T1 sequence (looked up): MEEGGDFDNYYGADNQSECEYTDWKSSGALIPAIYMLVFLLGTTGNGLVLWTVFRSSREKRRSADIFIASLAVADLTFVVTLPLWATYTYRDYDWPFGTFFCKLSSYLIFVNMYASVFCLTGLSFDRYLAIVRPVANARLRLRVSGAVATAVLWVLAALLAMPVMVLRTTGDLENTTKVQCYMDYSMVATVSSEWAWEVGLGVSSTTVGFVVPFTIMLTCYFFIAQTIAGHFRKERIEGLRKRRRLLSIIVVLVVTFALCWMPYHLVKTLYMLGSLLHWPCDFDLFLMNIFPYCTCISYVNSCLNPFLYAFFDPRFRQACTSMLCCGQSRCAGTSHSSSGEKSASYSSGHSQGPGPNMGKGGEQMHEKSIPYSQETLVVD
# method.notes: cell-based or functional assay
Bridges are numbered along the chain shown (N, C = ends). [ ]: non-standard residue; d: D form. pGlu = O=C1CC[C@@H](C(=O)O)N1; d(hCys) = N[C@H](CCS)C(=O)O; dNle = CCCC[C@@H](N)C(=O)O; Nle = CCCC[C@H](N)C(=O)O
property: hAPJ Ca^2+ Flux EC50 (nM)
The reply should contain only the number, in nM.

Entry ERPCLSCKGPLP (pE at 1; disulfide C4-C7; Nle at 11; C-terminal NH(Phenethyl) amide on P12) [pE-R-P-C*-L-S-C*-K-G-P-Nle-P-NH(Phenethyl)] — recorded hAPJ Ca^2+ Flux EC50 = 0.4

Entry [pGlu]RCRLSCK[dA]P[dNle][dA][dF]-OH (disulfide 3-7; SMILES CCCC[C@@H](NC(=O)[C@@H]1CCCN1C(=O)[C@@H](C)NC(=O)[C@H](CCCCN)NC(=O)[C@@H]1CSSC[C@H](NC(=O)[C@H](CCCNC(=N)N)NC(=O)[C@@H]2CCC(=O)N2)C(=O)N[C@@H](CCCNC(=N)N)C(=O)N[C@@H](CC(C)C)C(=O)N[C@@H](CO)C(=O)N1)C(=O)N[C@H](C)C(=O)N[C@H](Cc1ccccc1)C(=O)O) [pE-R-C*-R-L-S-C*-K-a-P-(D-Nle)-a-f-OH] — recorded hAPJ Ca^2+ Flux EC50 = 72.2

Entry Ac-[d(hCys)]RPRLS[d(hCys)]KGP[Nle]PF-OH (disulfide 1-7; SMILES CCCC[C@H](NC(=O)[C@@H]1CCCN1C(=O)CNC(=O)[C@H](CCCCN)NC(=O)[C@H]1CCSSCC[C@@H](NC(C)=O)C(=O)N[C@@H](CCCNC(=N)N)C(=O)N2CCC[C@H]2C(=O)N[C@@H](CCCNC(=N)N)C(=O)N[C@@H](CC(C)C)C(=O)N[C@@H](CO)C(=O)N1)C(=O)N1CCC[C@H]1C(=O)N[C@@H](Cc1ccccc1)C(=O)O) [Ac-(D-hC)*-R-P-R-L-S-(D-hC)*-K-G-P-Nle-P-F-OH] — recorded hAPJ Ca^2+ Flux EC50 = 410

Entry [pGlu]RCRLS[d(hCys)]KGP[dF][dA][dF]-OH (disulfide 3-7; SMILES CC(C)C[C@@H]1NC(=O)[C@H](CCCNC(=N)N)NC(=O)[C@@H](NC(=O)[C@H](CCCNC(=N)N)NC(=O)[C@@H]2CCC(=O)N2)CSSCC[C@H](C(=O)N[C@@H](CCCCN)C(=O)NCC(=O)N2CCC[C@H]2C(=O)N[C@H](Cc2ccccc2)C(=O)N[C@H](C)C(=O)N[C@H](Cc2ccccc2)C(=O)O)NC(=O)[C@H](CO)NC1=O) [pE-R-C*-R-L-S-(D-hC)*-K-G-P-f-a-f-OH] — recorded hAPJ Ca^2+ Flux EC50 = 2290

Each recorded value in this set is attributed to patent US20160108091A1.
